Examples of compounds with documented inhibition follow.
Experiment: inhibitors of HIV-1 Env-driven cell-cell fusion, primary screen, HeLa-JRFL effector, CEM21 target cells, luciferase (AID 651610);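 also: 0% = plate neutral controls and 100% = maraviroc near 300 nM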
Settings: active compounds read high; at 16.7 µM unless noted
The whole screen tested about 360,000 compounds, of which about 3,900 (1.1%) were called active. Many of the other results were omitted from the sample, so actives are more common in it than they were.

Exercise: Input CSc1ccc(CN2CCC2(C)C(=O)NCc2ccccc2Br)cc1 (stereo unspecified) , output reported inhibition.
Key: 26.2% [at 12.3 µM] (inactive)

Exercise: Report inhibition for `C[C@H](CO)N1C[C@H](C)[C@H](CN(C)C(=O)Nc2ccc(C(F)(F)F)cc2)Oc2ccc(NC(=O)Nc3ccccc3)cc2C1=O`
Key: 15.8% (inactive)

Exercise: Identify measured inhibition corresponding to `COc1ccc(CNc2ncnc3ccccc23)cc1`
Key: 77% [at 12.3 µM] (active)

Exercise: Tell us which inhibition value is on record for `Cn1c(-c2sccc2OCc2cccc(C(F)(F)F)c2)n[nH]c1=S`
Key: 63.4% [at 12.3 µM] (active)

Exercise: Dear colleague, please send me the reported inhibition for `COc1ccc(Cl)cc1NC(=O)CN(C)C(=O)CCCc1c[nH]c2ccccc12` when you can.
Key: 75.6% [at 12.3 µM] (active)

Further cases:
Exercise: Query inhibition for `Cc1ccc(S(=O)(=O)N2C[C@@H]3CCCC[C@@H]3[C@@H](C)[C@H]2c2cn(Cc3ccccc3)c3ccc(F)cc23)cc1`
Key: 77% [at 12.3 µM] (active)

* * *

Assay: inhibitors of HIV-1 Env-driven cell-cell fusion, primary screen, HeLa-JRFL effector, CEM21 target cells, luciferase (AID 651610);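 also: 0% = plate neutral controls and 100% = maraviroc near 300 nM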
Conditions: at 16.7 µM unless noted
The whole screen tested about 360,000 compounds, of which about 3,900 (1.1%) were called active.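 The calls were made as follows: active = mean replicate inhibition score of at least 50 and every replicate individually at or above 50; inconclusive = only one of the two criteria met; inactive = mean below 50 and not all replicates reaching 50.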 The sample as a whole holds a higher share of actives than the screen did.
Write down the outcome that applies. Available outcomes: 1.0 for active, 0.0 for inactive

Exercise: Answer briefly: the call reported for Fc1ccc(N2N=C(c3cccs3)CC2c2ccco2)c(F)c1 (centres undefined) in this assay.
Key: 1.0

Exercise: # lookup: test call for `CCn1c(SCc2cc(=O)n3ccsc3n2)nc2ccccc21`
Key: 0.0

Exercise: Field: outcome | Entry: `COc1ccc2c3c(n(C)c2c1)[C@@H](CO)N(C(=O)Nc1cccc(F)c1)CC31CCN(Cc2nccs2)CC1`
Key: 0.0

Exercise: Hi, do you know how `COc1ccc2c3c([nH]c2c1)[C@H](CO)N(C(=O)Nc1ccc(F)cc1)CC31CN(S(=O)(=O)c2cccc(F)c2)C1` came out in this test?
Key: 0.0

Exercise: Give the logged outcome of this assay for the following compound: `CCCCn1c(SCc2ncc(-c3ccccc3)o2)nc2cc(S(N)(=O)=O)ccc21`
Key: 1.0

Lab note: next compound to report on.
Exercise: Recorded test outcome, item `c1ccc(-c2cnc(CN3CCN(c4ccccc4)CC3)o2)cc1`
Key: 0.0

* * *

Test: inhibitors of HIV-1 Env-driven cell-cell fusion, primary screen, HeLa-JRFL effector, CEM21 target cells, luciferase (AID 651610);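 also: 0% = plate neutral controls and 100% = maraviroc near 300 nM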
Details: active compounds read high; at 16.7 µM unless noted
Out of some 360,000 compounds screened, about 3,900 (1.1%) were called active. The full list was thinned out, with actives kept by preference.
parameter: inhibition

# example entries with known answers
Exercise: Specify measured inhibition for `O=C1[C@H]2[C@@H](c3ccc(F)cc3)N3C(=O)N(c4ccc(C(F)(F)F)cc4)C(=O)[C@@]3(Cc3ccccc3)[C@H]2C(=O)N1C1CCCCC1` .
Key: 79% [at 12.3 µM] (active)

Exercise: Query inhibition for `COc1ccc2cc(-c3[nH]ncc3CNCCn3nc(C)cc3C)ccc2c1`
Key: -11.4% [at 12.3 µM] (inactive)

Continuing:
Exercise: Return inhibition (reported value) for this molecule: `Cc1cccc(N2C(=O)N3[C@H](c4ccc(F)cc4)[C@@H]4C(=O)N(C5CCCCC5)C(=O)[C@@H]4[C@]3(Cc3ccccc3)C2=O)c1`
Key: 55.1% [at 12.3 µM] (active)

Exercise: Kindly indicate its recorded inhibition. Item: CN1CC(c2ccccc2)C2(COc3ccccc3C2=O)C12C(=O)Nc1ccccc12 (stereo not drawn)
Key: 108% [at 12.3 µM] (active)

Exercise: Tell me inhibition reported for `COc1ccc(-c2cn[nH]c2-c2ccc(OC)cc2)cc1`
Key: 60.2% [at 12.3 µM] (active)

* * *

Assay: inhibitors of HIV-1 Env-driven cell-cell fusion, primary screen, HeLa-JRFL effector, CEM21 target cells, luciferase (AID 651610);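 also: 0% = plate neutral controls and 100% = maraviroc near 300 nM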
Conditions: at 16.7 µM unless noted
In all, about 360,000 compounds went through this assay and about 3,900 (1.1%) were called active.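 How the source made its calls: active means mean replicate inhibition score of at least 50 and every replicate individually at or above 50; inconclusive means only one of the two criteria met; inactive means mean below 50 and not all replicates reaching 50.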 The entries come from a sample that favours actives as a whole.
Entry note: the call must match one of active, inactive

Exercise: Recorded test outcome, item `COc1ccccc1CNC(=O)C1CCN(S(C)(=O)=O)CC1`
Key: inactive

***
Exercise: Could you kindly confirm the outcome this assay logged for `COC(=O)C1(C(=O)OC)C[C@H](c2ccccc2)N(Cc2ccccc2OC)[C@@H]1c1ccccc1` ?
Key: active

Exercise: For `Cc1ccc(S(=O)(=O)Nc2ccc3c(c2)CC(=O)N([C@H](C)CO)C[C@@H](C)[C@H](CN(C)Cc2ccc(C(F)(F)F)cc2)O3)cc1` , which call appears in the assay record?
Key: inactive

Exercise: // param item: `C[C@@H]1CN([C@H](C)CO)C(=O)Cc2cc(NS(=O)(=O)c3ccc(Cl)cc3)ccc2O[C@H]1CN(C)S(=O)(=O)c1cccs1` ; yields the recorded call
Key: inactive

Exercise: I would be grateful if you could indicate the recorded call for `Cc1ccc(S(=O)(=O)Nc2ccc3c(c2)C(=O)N([C@H](C)CO)C[C@@H](C)[C@H](CN(C)S(=O)(=O)c2cccs2)OCCCC[C@@H](C)O3)cc1` .
Key: inactive

Exercise: Given CSCCC(NS(=O)(=O)c1ccc2c(c1)oc(=O)n2C)C(=O)NCc1ccccc1 (stereo not drawn) , state the outcome it received in this test.
Key: inactive

Exercise: I'd appreciate the recorded outcome for CNS(=O)(=O)c1cccc(C(=O)NC2CCCc3ccccc32)c1 (stereo not drawn) from this test.
Key: inactive

Exercise: Short answer needed: outcome of this test for `C[C@@H]1CN([C@H](C)CO)C(=O)Cc2cc(NC(=O)CCCN(C)C)ccc2O[C@@H]1CN(C)S(=O)(=O)c1cccs1` ?
Key: inactive

* * *

Test: inhibitors of HIV-1 Env-driven cell-cell fusion, primary screen, HeLa-JRFL effector, CEM21 target cells, luciferase (AID 651610);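 also: 0% = plate neutral controls and 100% = maraviroc near 300 nM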
Settings: at 16.7 µM unless noted
Hit rate of the full screen: of about 360,000 compounds, about 3,900 (1.1%) were called active.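 Rule for the calls: active = mean replicate inhibition score of at least 50 and every replicate individually at or above 50; inconclusive = only one of the two criteria met; inactive = mean below 50 and not all replicates reaching 50.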 Many of the other results were omitted from the sample, so actives are more common in it than they were.
// classify into yes (1) for active, no (0) for inactive

Here are 3 compounds together with their reported answers.
Exercise: What was the test verdict on `C[C@@H]1CCCCO[C@@H](CN(C)C(=O)Nc2ccc(C(F)(F)F)cc2)[C@H](C)CN([C@H](C)CO)C(=O)c2cc(NC(=O)C3CCCCC3)ccc2O1` ?
Key: no (0)

Exercise: Call for entry O=C(c1ccccc1)N1CCC(CC2CC(c3ccc(Cl)cc3)=NO2)(C(=O)NCC2CCCCC2)CC1 (centres undefined) :
Key: no (0)

Exercise: Write down the call the test reported for this compound. Item: COc1ccc(CNC(=O)C2(CC3CC(c4ccccc4)=NO3)CCN(C(=O)c3cccc(O)c3)CC2)cc1 (centres undefined)
Key: yes (1)

Turning to the following compound.
Exercise: Kindly provide the recorded test outcome for the following compound: `COc1ccc(CN(C)C[C@H]2Oc3c(NC(=O)C4CCCCC4)cccc3C(=O)N([C@@H](C)CO)C[C@@H]2C)cc1`
Key: no (0)

* * *

The following compounds are listed with their measured inhibition values.
Experiment: inhibitors of HIV-1 Env-driven cell-cell fusion, primary screen, HeLa-JRFL effector, CEM21 target cells, luciferase (AID 651610);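 also: 0% = plate neutral controls and 100% = maraviroc near 300 nM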
Conditions: active compounds read high; at 16.7 µM unless noted
Hit rate of the full screen: of about 360,000 compounds, about 3,900 (1.1%) were called active. The full list was thinned out, with actives kept by preference.
Give a bare numeral; the unit % is implied.

Consider the following illustrative entries.
Exercise: Indicate its recorded inhibition; the compound in question is Cc1cc(C)cc(N2C(=O)CSC2c2cccc([N+](=O)[O-])c2)c1 (centres undefined)
Key: -6.42

Exercise: Specify measured inhibition for `C[C@@H]1CN([C@H](C)CO)C(=O)c2cc(C#CC3CCCCC3)cnc2O[C@@H]1CN(C)C(=O)NC1CCCC1` .
Key: 10.8

Exercise: Report inhibition, nothing else, for this compound: `C[C@@H]1CN([C@H](C)CO)S(=O)(=O)c2ccc(Br)cc2O[C@@H]1CN(C)Cc1cncnc1`
Key: -25.8

Below: the item to evaluate.
Exercise: # return recorded inhibition for entry `C[C@@H]1CN([C@@H](C)CO)C(=O)Cc2cc(NC(=O)C3CCCCC3)ccc2O[C@@H]1CN(C)CC1CCCCC1`
Key: -8.61
